The measured values listed here are drawn from patent US12012417B2.

A collection of molecules and their measured pEC50
Tested on: Dengue 4 virus MY01-22713
PROCEDURE TEXT: High-content imaging cell-based flavivirus immunodetection (HCl-CFI) assay, Dengue 4
STATED CONDITIONS: Dengue virus, A549, 48 h, read-out: Dengue 4 virus MY01-22713 in A549 using HCl [Inhibitor/IC50] Qualified AC50, A549 cells, 48 h, viral E protein expression
pEC50: −log10 of the molar value.
ENDPOINT LABEL: pEC50

MOLECULE: CCOc1cc(CC(=O)Nc2sc3c(c2C#N)CN(CC2CCCCC2)CC3)ccc1S(N)(=O)=O
TESTED TARGET: Dengue 4 virus MY01-22713
VALUE OBSERVED: > 7.00
--
MOLECULE: COc1cc(CC(=O)Nc2sc3c(c2C#N)CN(CC2CC(F)(F)C2)CC3)ccc1S(C)(=O)=O
TESTED TARGET: Dengue 4 virus MY01-22713
VALUE OBSERVED: 6.00 to 7.00
--
MOLECULE: N#Cc1c(NC(=O)Cc2ccc3c(c2)CNS3(=O)=O)sc2c1CN(CC1CC(F)(F)C1)CC2
TESTED TARGET: Dengue 4 virus MY01-22713
VALUE OBSERVED: 6.00 to 7.00
--
MOLECULE: CC1Cc2sc(NC(=O)Cc3ccc(S(N)(=O)=O)cc3)c(C#N)c2CN1CC1CC(F)(F)C1 (stereo not shown)
TESTED TARGET: Dengue 4 virus MY01-22713
VALUE OBSERVED: > 7.00
--
MOLECULE: CC1(C)Cc2sc(NC(=O)Cc3ccc4c(c3)C(CN)CS4(=O)=O)c(C#N)c2CN1CC1CCCCC1 (stereo not shown)
TESTED TARGET: Dengue 4 virus MY01-22713
VALUE OBSERVED: 6.00 to 7.00
--
MOLECULE: CC1Cc2sc(NC(=O)Cc3ccc(S(N)(=O)=O)cc3)c(C#N)c2CN1C(C)c1ccccc1 (single isomer, unassigned)
TESTED TARGET: Dengue 4 virus MY01-22713
VALUE OBSERVED: > 7.00
--
MOLECULE: N#Cc1c(NC(=O)Cc2ccc(S(N)(=O)=O)c(F)c2)sc2c1CN(Cc1cccc(F)c1)CC2
TESTED TARGET: Dengue 4 virus MY01-22713
VALUE OBSERVED: > 7.00

###

Listing: EC50 of selected molecules
Test system: Dengue 1 virus MY97-10245
PROCEDURE TEXT: High-content imaging cell-based flavivirus immunodetection (HCl-CFI) assay, Dengue 1
STATED CONDITIONS: Dengue virus, A549, 48 h, read-out: Dengue 1 virus MY97-10245 in A549 using HCl [Inhibitor/IC50] Qualified AC50
ENDPOINT LABEL: EC50

MOLECULE: CC1(C)Cc2sc(NC(=O)Cc3ccc4c(c3)C(CN)CS4(=O)=O)c(C#N)c2CN1CC1CCCCC1 (centres unmarked) [Example 74]
VALUE OBSERVED: 100 to 1000 nM
//
MOLECULE: N#Cc1c(NC(=O)Cc2ccc(S(N)(=O)=O)cc2)sc2c1CCN(Cc1c(F)cccc1F)C2 [Example 116]
VALUE OBSERVED: 100 to 1000 nM
//
MOLECULE: CC1Cc2sc(NC(=O)Cc3ccc(S(N)(=O)=O)cc3)c(C#N)c2CN1Cc1cc(Cl)ccc1Cl (centres unmarked) [Example 64]
VALUE OBSERVED: < 100 nM
//
MOLECULE: Cc1cccc(CN2CCc3c(sc(NC(=O)Cc4ccc(S(N)(=O)=O)cc4)c3C#N)C2)c1C [Example 95]
VALUE OBSERVED: 100 to 1000 nM
//
MOLECULE: N#Cc1c(NC(=O)Cc2ccc(S(N)(=O)=O)cc2)sc2c1CCCN(CC1CCCCC1)C2 [Example 127]
VALUE OBSERVED: > 1000 nM
//
MOLECULE: CS(=O)(=O)c1ccc(CC(=O)Nc2sc3c(c2C#N)CN(Cc2cccc(F)c2)CC3)cc1C#N [Example 27]
VALUE OBSERVED: 100 to 1000 nM
//
MOLECULE: N#Cc1c(NC(=O)Cc2ccc(S(=O)(=O)C(F)F)cc2)sc2c1CN(Cc1cccc(F)c1)CC2 [Example 45]
VALUE OBSERVED: > 1000 nM
//
MOLECULE: N#Cc1c(NC(=O)Cc2ccc3c(c2)CCS3(=O)=O)sc2c1CN(CC1CCCCC1)CC2 [Example 18]
VALUE OBSERVED: < 100 nM

###

Test system: Dengue 3 virus MY05-34640-WT-C6/36
PROCEDURE TEXT: High-content imaging cell-based flavivirus immunodetection (HCl-CFI) assay, Dengue 3
STATED CONDITIONS: Dengue virus, A549, 48 h, read-out: Dengue 3 virus MY05-34640-WT-C6/36 in A549 using HCl [Inhibitor/IC50] Qualified AC50
pEC50: −log10 of the molar value. Counter-ions that a name gives are not always drawn.
Let's look at some molecules and their measured pEC50.

MOLECULE: CC(c1ccccc1)N1CCc2c(sc(NC(=O)Cc3ccc(S(N)(=O)=O)cc3)c2C#N)C1 (centres unmarked) [Example 90, hydrochloride]
TESTED TARGET: Dengue 3 virus MY05-34640-WT-C6/36
pEC50: 6.00 to 7.00

MOLECULE: COc1cc(CC(=O)Nc2sc3c(c2C#N)CN(CC2CC(F)(F)C2)CC3)ccc1S(N)(=O)=O [Example 50]
TESTED TARGET: Dengue 3 virus MY05-34640-WT-C6/36
pEC50: 6.00 to 7.00

MOLECULE: COCCOc1cccc(CC(=O)Nc2sc3c(c2C#N)CN(CC2CCCCC2)CC3)c1 [Example 15]
TESTED TARGET: Dengue 3 virus MY05-34640-WT-C6/36
pEC50: 6.00 to 7.00

MOLECULE: N#Cc1c(NC(=O)Cc2ccc(S(N)(=O)=O)cc2)sc2c1CCN(Cc1cc(F)cc(F)c1)C2 [Example 93]
TESTED TARGET: Dengue 3 virus MY05-34640-WT-C6/36
pEC50: > 7.00

MOLECULE: N#Cc1c(NC(=O)Cc2ccc(S(N)(=O)=O)cc2)sc2c1CN(CC1CCCC1)CC2 [Example 4]
TESTED TARGET: Dengue 3 virus MY05-34640-WT-C6/36
pEC50: 6.00 to 7.00

MOLECULE: CN(C)S(=O)(=O)c1ccc(CC(=O)Nc2sc3c(c2C#N)CN(Cc2cccc(F)c2)CC3)cc1 [Example 47]
TESTED TARGET: Dengue 3 virus MY05-34640-WT-C6/36
pEC50: > 7.00

MOLECULE: CN(C(=O)Cc1ccc(S(N)(=O)=O)cc1)c1sc2c(c1C#N)CN(CC1CCCCC1)C(C)(C)C2 [Example 75]
TESTED TARGET: Dengue 3 virus MY05-34640-WT-C6/36
pEC50: < 6.00

MOLECULE: CNS(=O)(=O)c1ccc(CC(=O)Nc2sc3c(c2C#N)CN(Cc2cccc(F)c2)CC3)cc1 [Example 29]
TESTED TARGET: Dengue 3 virus MY05-34640-WT-C6/36
pEC50: > 7.00

MOLECULE: COP(C)(=O)c1ccc(CC(=O)Nc2sc3c(c2C#N)CN(Cc2cccc(F)c2)CC3)cc1 (centres unmarked) [Example 44]
TESTED TARGET: Dengue 3 virus MY05-34640-WT-C6/36
pEC50: 6.00 to 7.00

MOLECULE: N#Cc1c(NC(=O)Cc2ccc3c(c2)CNC3)sc2c1CN(CC1CCCCC1)CC2 [Example 20]
TESTED TARGET: Dengue 3 virus MY05-34640-WT-C6/36
pEC50: < 6.00

MOLECULE: N#Cc1c(NC(=O)Cc2ccc(S(N)(=O)=O)cc2)sc2c1CCN(Cc1ccccc1Cl)C2 [Example 114]
TESTED TARGET: Dengue 3 virus MY05-34640-WT-C6/36
pEC50: 6.00 to 7.00

MOLECULE: CS(=O)(=O)Nc1ccc(CC(=O)Nc2sc3c(c2C#N)CN(CC2CCCCC2)CC3)cc1 [Example 13]
TESTED TARGET: Dengue 3 virus MY05-34640-WT-C6/36
pEC50: 6.00 to 7.00

MOLECULE: CC1(C)CS(=O)(=O)c2ccc(CC(=O)Nc3sc4c(c3C#N)CN(Cc3cccc(F)c3)CC4)cc21 [Example 42]
TESTED TARGET: Dengue 3 virus MY05-34640-WT-C6/36
pEC50: > 7.00

MOLECULE: CC1Cc2sc(NC(=O)Cc3ccc(C(N)=O)cc3)c(C#N)c2CN1Cc1cccc(F)c1 (centres unmarked) [Example 58]
TESTED TARGET: Dengue 3 virus MY05-34640-WT-C6/36
pEC50: > 7.00

MOLECULE: CC1Cc2sc(NC(=O)Cc3ccc(S(=O)(=O)NCC4CCCC4)cc3)c(C#N)c2CN1CC1CCCC1 (centres unmarked) [Example 61]
TESTED TARGET: Dengue 3 virus MY05-34640-WT-C6/36
pEC50: < 6.00

MOLECULE: CS(=O)(=O)c1ccc(CC(=O)Nc2sc3c(c2C#N)CCN(Cc2cc(Cl)ccc2Cl)C3)cc1 [Example 121]
TESTED TARGET: Dengue 3 virus MY05-34640-WT-C6/36
pEC50: < 6.00

MOLECULE: N#Cc1c(NC(=O)Cc2ccc(S(N)(=O)=O)cc2)sc2c1CCCN(CC1CCCCC1)C2 [Example 127]
TESTED TARGET: Dengue 3 virus MY05-34640-WT-C6/36
pEC50: 6.00 to 7.00

MOLECULE: N#Cc1c(NC(=O)Cc2ccc(S(N)(=O)=O)cc2)sc2c1CCN(Cc1cc(F)ccc1F)C2 [Example 113]
TESTED TARGET: Dengue 3 virus MY05-34640-WT-C6/36
pEC50: > 7.00

MOLECULE: CCC1Cc2sc(NC(=O)Cc3ccc(S(N)(=O)=O)cc3)c(C#N)c2CN1Cc1cccc(F)c1 (centres unmarked) [Example 87]
TESTED TARGET: Dengue 3 virus MY05-34640-WT-C6/36
pEC50: > 7.00

MOLECULE: COc1cc(S(N)(=O)=O)ccc1CC(=O)Nc1sc2c(c1C#N)CN(Cc1cccc(F)c1)CC2 [Example 24]
TESTED TARGET: Dengue 3 virus MY05-34640-WT-C6/36
pEC50: > 7.00

MOLECULE: N#Cc1c(NC(=O)Cc2ccc(S(N)(=O)=O)cc2)sc2c1CCN(Cc1cccc(F)c1)CC2 [Example 124]
TESTED TARGET: Dengue 3 virus MY05-34640-WT-C6/36
pEC50: > 7.00

MOLECULE: N#Cc1c(NC(=O)Cc2ccc(S(=O)(=O)C(F)F)cc2)sc2c1CN(CC1CCCCC1)CC2 [Example 11]
TESTED TARGET: Dengue 3 virus MY05-34640-WT-C6/36
pEC50: > 7.00

MOLECULE: CC1Cc2sc(NC(=O)Cc3ccc(S(=O)(=O)NCC4CC(F)(F)C4)cc3)c(C#N)c2CN1CC1CC(F)(F)C1 (centres unmarked) [Example 57]
TESTED TARGET: Dengue 3 virus MY05-34640-WT-C6/36
pEC50: < 6.00

MOLECULE: N#Cc1c(NC(=O)Cc2ccc(S(N)(=O)=O)c(F)c2)sc2c1CN(CC1CCCCC1)CC2 [Example 9]
TESTED TARGET: Dengue 3 virus MY05-34640-WT-C6/36
pEC50: > 7.00

MOLECULE: COc1cc(CC(=O)Nc2sc3c(c2C#N)CN(CC2CC(F)(F)C2)CC3)ccc1S(C)(=O)=O [Example 51]
TESTED TARGET: Dengue 3 virus MY05-34640-WT-C6/36
pEC50: 6.00 to 7.00

MOLECULE: CC1Cc2sc(NC(=O)Cc3ccc(S(N)(=O)=O)cc3)c(C#N)c2CN1Cc1cc(F)cc(F)c1 (centres unmarked) [Example 85]
TESTED TARGET: Dengue 3 virus MY05-34640-WT-C6/36
pEC50: > 7.00
